# EXPERIMENTAL_PROTOCOL: basal 3T3-L1 adipocyte mitochondrial potential changes, profiling panel, cell-based, JC-1 fluorescence, 3T3-L1 adipocytes, 24 h, 100 nL compound (AID 1168); also: test concentration not given here
# COND: JC-1 mitochondrial fluorescence, higher = more signal, called active from +8 up or from −8 down
The molecules listed here are annotated with their z-score.
Form: value (number only, do not type unit).

Would you please look over these solved cases?
**Q:** Look at this molecule and give its reported z-score. NCCCCCCNC(=O)[C@@H]1C[C@@H]2C(=O)NCC(=O)N2[C@@H]1c1ccc(O)cc1
**A:** 0.172

**Q:** Look at this molecule and give its reported z-score. O=C(NCCO)C1=C[C@H](Oc2ccccc2I)[C@@H](O)[C@H](N(Cc2ccco2)C(=O)Cc2ccccc2)C1
**A:** -0.166

**Q:** Look at this molecule and give its reported z-score. C=CCC(OC(C)=O)[C@@H]1[C@@H](N(Cc2ccc(-c3ccccc3)cc2)C(=O)c2ccc(-c3ccccc3)cc2)c2cc(OCCCO)ccc2N1C(=O)Cc1ccc2ccccc2c1 (stereo partly drawn)
**A:** -1.07

**Q:** Look at this molecule and give its reported z-score. COCCOC(=O)N1C(=O)[C@@]2(c3cc(C#CCCO)ccc31)[C@H](C(N)=O)[C@H]1C(=O)O[C@H](c3ccccc3)[C@H](c3ccccc3)N1[C@@H]2c1ccc(O)cc1
**A:** -0.142

**Q:** Look at this molecule and give its reported z-score. C=CCOC(=O)[C@H]1[C@@H]2C(=O)O[C@@H](c3ccccc3)[C@@H](c3ccccc3)N2[C@@H](c2ccc(OCCOC(=O)[C@H]3C[C@H]4C(=O)N[C@@H](CCCCNC(C)=O)C(=O)N4[C@H]3c3ccc(O)cc3)cc2)[C@]12C(=O)Nc1ccc(I)cc12
**A:** 0.585

**Q:** Look at this molecule and give its reported z-score. [N-]=[N+]=Nc1ccccc1[C@H]1OC(c2ccc(OCCCO)cc2)=N[C@@]1(CCS(=O)(=O)c1ccccc1)C(N)=O
**A:** -0.235

**Q:** Look at this molecule and give its reported z-score. NCCCCCNC(=O)[C@@H]1C[C@@H]2C(=O)N[C@@H](Cc3ccccc3)C(=O)N2[C@@H]1c1ccc(O)cc1
**A:** -0.0278

Could you now consider this next molecule?
**Q:** Look at this molecule and give its reported z-score. CN1C(=O)C2C=CC(C(O)c3ccc([N+](=O)[O-])cc3)N(N3CCCCC3)C2C1=O (stereo not drawn)
**A:** -0.927
